Experiment: Oral bioavailability in Sprague-Dawley rat at 21.7 mg/kg
Format: ADME, organism-based
Conditions: in vivo
measured-parameter: bioavailability (%)
Answer in %, number only, no unit symbol.

Kindly indicate its recorded bioavailability. Item: CS(=O)(=O)c1ccc(-c2cnc(N)c(-c3ccc(C(F)(F)F)cc3)c2)cc1
26

###

Assay: Volume of distribution at steady state in Sprague-Dawley rat at […], iv
Assay type: ADME, organism-based
Design: dose 4.7 mg/kg, route intravenous
Settings: in vivo, read-out: Vdss
measured-parameter: Vd
Show the value, then the unit it is measured in.

{"molecule": "COc1ccc(-c2cc(-c3ccc(S(C)(=O)=O)cc3)cnc2N)cn1", "Vd": "4.3 L/kg"}

Pending molecule:
Give Vd for the following molecule: CS(=O)(=O)c1ccc(-c2cnc(N)c(-c3ccc(C(F)(F)F)cc3)c2)cc1
8 L/kg

###

Experiment: Cmax in Sprague-Dawley rat at 22.3 mg/kg, po
Assay type: ADME, organism-based
Design: dose 22.3 mg/kg, route oral
Conditions: in vivo
measured-parameter: Cmax (µM)
Return type: number; implicit unit µM.

Give the reported value of Cmax for this record: COc1ccc(-c2cc(-c3ccc(S(C)(=O)=O)cc3)cnc2N)cn1
21

###

Overview of recorded fraction unbound for various compounds
Assay: Plasma protein binding in human by reverse phase gradient HPLC analysis
Format: ADME, cell-free
Conditions: read-out: PPB (converted)
Give only the figure.

Some solved cases for reference:
{"molecule": "CS(=O)(=O)c1ccc(-c2cnc(N)c(-c3ccc(F)nc3)c2)cc1", "fraction unbound": 0.431}
{"molecule": "CS(=O)(=O)c1ccc(-c2cnc(N)c(-c3ccc(C(F)(F)F)nc3)c2)cc1", "fraction unbound": 0.139}
{"molecule": "CS(=O)(=O)c1ccc(-c2cnc(N)c(-c3ccc(C(F)(F)F)cc3)c2)cc1", "fraction unbound": 0.038}
{"molecule": "CS(=O)(=O)c1ccc(-c2cnc(N)c(-c3cccc(C(F)(F)F)c3)c2)cc1", "fraction unbound": 0.059}
{"molecule": "CS(=O)(=O)c1ccc(-c2cnc(N)c(-c3ccc(C(F)(F)F)c(F)c3)c2)cc1", "fraction unbound": 0.052}

Return fraction unbound for the following compound: CNC(=O)c1ccc(-c2cc(-c3ccc(S(C)(=O)=O)cc3)cnc2N)cc1
0.182

Could you please provide reported fraction unbound for COc1cc(-c2cc(-c3ccc(S(C)(=O)=O)cc3)cnc2N)ccc1O ? Thanks!
0.172

Determine from records and report fraction unbound for CS(=O)(=O)c1ccc(-c2cnc(N)c(-c3ccc(C(N)=O)cc3)c2)cc1
0.216

Check the records and state fraction unbound for Cc1ccc(-c2cc(-c3ccc(S(C)(=O)=O)cc3)cnc2N)cn1
0.256

// fetch fraction unbound given entry CS(=O)(=O)c1ccc(-c2cnc(N)c(-c3ccc(CO)nc3)c2)cc1
0.541

Note down fraction unbound recorded for Cc1ccc(-c2cc(-c3ccc(S(C)(=O)=O)cc3)cnc2N)cc1C(F)(F)F
0.031

For the compound Cc1ccc(-c2cc(-c3ccc(S(C)(=O)=O)cc3)cnc2N)c2cccnc12 , give its measured fraction unbound value.
0.056

###

Experiment: Half life in human liver microsomes at 1 uM
Type: ADME, Microsome
The following molecules are shown together with reported half-life at 1 µM values.

Some molecules with recorded half-life at 1 µM:
{"molecule": "CS(=O)(=O)c1ccc(-c2cnc(N)c(-c3ccc(C(F)(F)F)nc3)c2)cc1", "half-life at 1 µM": "> 8.33 h"}
{"molecule": "CS(=O)(=O)c1ccc(-c2cnc(N)c(-c3ccc(S(C)(=O)=O)cc3)c2)cc1", "half-life at 1 µM": "> 5.83 h"}
{"molecule": "CS(=O)(=O)c1ccc(-c2cnc(N)c(-c3cccc(C(F)(F)F)c3)c2)cc1", "half-life at 1 µM": "> 4.17 h"}
{"molecule": "CNC(=O)c1ccc(-c2cc(-c3ccc(S(C)(=O)=O)cc3)cnc2N)cc1", "half-life at 1 µM": "> 5.83 h"}
{"molecule": "CS(=O)(=O)c1ccc(-c2cnc(N)c(-c3ccc(C#N)cc3)c2)cc1", "half-life at 1 µM": "> 5.83 h"}
{"molecule": "Cc1ccc(-c2cc(-c3ccc(S(C)(=O)=O)cc3)cnc2N)cn1", "half-life at 1 µM": "> 5.83 h"}
{"molecule": "CS(=O)(=O)c1ccc(-c2cnc(N)c(-c3ccc(C(N)=O)cc3)c2)cc1", "half-life at 1 µM": "> 5.83 h"}
{"molecule": "CS(=O)(=O)c1ccc(-c2cnc(N)c(-c3ccc(F)nc3)c2)cc1", "half-life at 1 µM": "4.12 h"}

Kindly indicate its recorded half-life at 1 µM. Item: COc1cc(-c2cc(-c3ccc(S(C)(=O)=O)cc3)cnc2N)ccc1O
1.72 h

Give the reported value of half-life at 1 µM for this record: COc1ccc(-c2cc(-c3ccc(S(C)(=O)=O)cc3)cnc2N)cn1
> 1.65 h

###

Experiment: AUC (0 to infinity) in Sprague-Dawley rat at 21.7 mg/kg, po
Assay type: ADME, organism-based
Set-up: time infinity, dose 21.7 mg/kg, route oral
Conditions: plasma
measured-parameter: AUC(0-inf) (µM·h)
State just the number; it will be interpreted in µM·h.

Return AUC(0-inf) (reported value) for this compound: CS(=O)(=O)c1ccc(-c2cnc(N)c(-c3ccc(C(F)(F)F)cc3)c2)cc1
8.27

###

Experiment: Apparent terminal half life in Sprague-Dawley rat at 5 mg/kg, po
Assay type: ADME, organism-based
Design: dose 5 mg/kg, route oral
Details: in vivo, read-out: betat1/2(app) (converted)
measured-parameter: half-life (h)
Your answer is read as h, so omit the unit and give the number.

Check the records and state half-life for COc1ccc(-c2cc(-c3ccc(S(C)(=O)=O)cc3)cnc2N)cn1
6.7

###

Assay: Tmax in Sprague-Dawley rat at 21.7 mg/kg, po
Format: ADME, organism-based
Parameters: dose 21.7 mg/kg, route oral
Conditions: in vivo
measured-parameter: Tmax (h)
Unit h implied. Number only.

Specify measured Tmax for CS(=O)(=O)c1ccc(-c2cnc(N)c(-c3ccc(C(F)(F)F)cc3)c2)cc1 .
3.25

###

Each item that follows carries a reported microsomal CLint at 1 µM.
Assay: Intrinsic clearance in human liver microsomes at 1 uM up to 60 mins
Assay type: ADME, Microsome
Conditions: read-out: CLH

Answered cases to consult:
{"molecule": "CS(=O)(=O)c1ccc(-c2cnc(N)c(-c3ccc(C(N)=O)cc3)c2)cc1", "microsomal CLint at 1 µM": "< 5 µL/min/mg"}
{"molecule": "Cc1ccc(-c2cc(-c3ccc(S(C)(=O)=O)cc3)cnc2N)c2cccnc12", "microsomal CLint at 1 µM": "16 µL/min/mg"}
{"molecule": "CS(=O)(=O)c1ccc(-c2cnc(N)c(-c3ccc(C#N)cc3)c2)cc1", "microsomal CLint at 1 µM": "< 5 µL/min/mg"}
{"molecule": "CS(=O)(=O)c1ccc(-c2cnc(N)c(-c3ccc(S(C)(=O)=O)cc3)c2)cc1", "microsomal CLint at 1 µM": "< 5 µL/min/mg"}
{"molecule": "CS(=O)(=O)c1ccc(-c2cnc(N)c(-c3ccc(C(F)(F)F)cc3)c2)cc1", "microsomal CLint at 1 µM": "< 7 µL/min/mg"}

# return recorded microsomal CLint at 1 µM for entry CS(=O)(=O)c1ccc(-c2cnc(N)c(-c3ccc(C(F)(F)F)c(F)c3)c2)cc1
14 µL/min/mg

Supply recorded microsomal CLint at 1 µM for Cc1ccc(-c2cc(-c3ccc(S(C)(=O)=O)cc3)cnc2N)cc1C(F)(F)F here.
23 µL/min/mg

Consider the compound Cc1ccc(-c2cc(-c3ccc(S(C)(=O)=O)cc3)cnc2N)cn1 and give its recorded microsomal CLint at 1 µM.
< 5 µL/min/mg

For the compound COc1cc(-c2cc(-c3ccc(S(C)(=O)=O)cc3)cnc2N)ccc1O , report microsomal CLint at 1 µM.
17 µL/min/mg

Return the recorded microsomal CLint at 1 µM value; entry: COc1ccc(-c2cc(-c3ccc(S(C)(=O)=O)cc3)cnc2N)cn1
< 28 µL/min/mg

###

Test system: Plasmodium berghei
Experiment: Antimalarial activity against Plasmodium berghei ANKA expressing GFP infected in Sprague-Dawley rat assessed as reduction in parasitemia at 10 mg/kg, po administered as single dose measured on day 3 post-infection by flow cytometry
Type: functional
Design: scale not given: the % may be the effect or the level left
Recorded Activity for the following molecules
Give your result in % as a bare value.

Please look at this molecule and report its Activity: CS(=O)(=O)c1ccc(-c2cnc(N)c(-c3ccc(C(F)(F)F)nc3)c2)cc1
98

Please give measured Activity of the following entry: CCN(CC)CCCC(C)Nc1ccnc2cc(Cl)ccc12 (centres undefined)
99.5

Name the recorded Activity of the item CS(=O)(=O)c1ccc(-c2cnc(N)c(-c3ccc(C(F)(F)F)cc3)c2)cc1 in your answer.
98

Return value of Activity for input COc1ccc(-c2cc(-c3ccc(S(C)(=O)=O)cc3)cnc2N)cn1 , no commentary.
82
